Molecular target: HRV-C RdRp (rhinovirus C15)
Sequence (E5D8F2 1694-2153): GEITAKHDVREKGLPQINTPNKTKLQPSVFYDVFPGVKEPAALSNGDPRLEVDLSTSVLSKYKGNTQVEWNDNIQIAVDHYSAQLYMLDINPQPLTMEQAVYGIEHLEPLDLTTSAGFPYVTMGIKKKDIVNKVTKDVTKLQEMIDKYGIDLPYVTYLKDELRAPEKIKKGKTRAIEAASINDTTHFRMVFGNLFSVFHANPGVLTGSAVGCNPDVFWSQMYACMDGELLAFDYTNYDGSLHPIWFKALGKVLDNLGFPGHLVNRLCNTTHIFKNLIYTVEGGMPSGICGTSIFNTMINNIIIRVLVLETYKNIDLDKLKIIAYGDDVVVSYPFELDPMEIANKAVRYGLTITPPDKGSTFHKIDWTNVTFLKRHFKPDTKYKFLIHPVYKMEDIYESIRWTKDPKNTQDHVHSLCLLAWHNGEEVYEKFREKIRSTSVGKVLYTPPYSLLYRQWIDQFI
pIC50 values by entry
Keep in mind that pIC50 stands for -log10 of concentration in molar terms.

- chemical-structure: "Nc1ccn([C@@H]2OC(COP(=O)(O)OP(=O)(O)OP(=O)(O)O)=C[C@H]2O)c(=O)n1"
  property-label: "pIC50"
  measured-number: 3.05

Next, consider the following compound.
Value wanted: pIC50 (HRV-C RdRp (rhinovirus C15)) of entry Nc1ccn([C@@H]2O[C@H](COP(=O)(O)OP(=O)(O)OP(=O)(O)O)C[C@H]2O)c(=O)n1
5.30
